For each of the compounds below, state its inhibition in vivo at 25 mg/kg.
Tested on: HER2/ErbB2 amplified cell line N87
Procedure Details: In vivo tumor growth inhibition, xenograft
Set-up: species or system Bab/c nude mice
Condition Set: Mus musculus, po, 456 h, 25 mg/kg intragastric once daily, day 19, read-out: TGI (%)
Numbers only, in %.

C=CC(=O)Nc1cc(Nc2cc(Nc3ccc(OCC4CCOCC4)c(Cl)c3)ncn2)c(OC)cc1N(C)CCN(C)C [Compound 216]
97.6
C=CC(=O)Nc1cc(Nc2cc(-c3cn(C(C)C)c4ccc(F)cc34)ncn2)c(OC)cc1N(C)CCN(C)C [Compound 191]
96.6
C=CC(=O)Nc1cc(Nc2cc(-c3cn(C(C)C)c4ccccc34)ncn2)c(OC)cc1N(C)CCN(C)C [Compound 183]
97.7
C=CC(=O)Nc1cc(Nc2cc(Nc3cc(F)c(OC)c(Cl)c3)ncn2)c(OC)cc1N(C)CCN(C)C [Compound 236]
97.5

Required: inhibition in vivo at 25 mg/kg, one value per compound below.
1. CN(C)C/C=C/C(=O)Nc1cc2c(Nc3ccc(F)c(Cl)c3)ncnc2cc1O[C@H]1CCOC1 [Afatinib, reference compound]
2. C=CC(=O)Nc1cc(Nc2ncnc(Nc3cccc(Br)c3)n2)c(OC)cc1N(C)CCN(C)C [Compound 115]
3. C=CC(=O)Nc1cc(Nc2cc(Nc3cc(OC)c(Cl)cc3Cl)ncn2)c(OC)cc1N(C)CCN(C)C [Compound 136]
4. C=CC(=O)Nc1cc(Nc2nccc(-n3ccc4c(OC)cccc43)n2)c(OC)cc1N(C)CCN(C)C [Compound 99]
5. C=CC(=O)Nc1cc(Nc2nccc(-n3ccc4ccc(F)cc43)n2)c(OC)cc1N(C)CCN(C)C [Compound 63]

1. 98.3
2. 97.8
3. 96.7
4. 95.4
5. 94.7

----------
For each of the compounds below, state its GI50.
Test system: N87 (HER2 Amp)
Procedure Details: Growth inhibition GI50 in vitro (CCK8/MTT, 72 h)
Assay type: cell-based, human
Condition Set: Homo sapiens; HER2 positive cell line; range of GI50; read-out: GI50 N87

The cases that follow already have their GI50 on record.
C=CC(=O)Nc1cc(Nc2nccc(-n3ccc4ccc(F)cc43)n2)c(OC)cc1N(C)CCN(C)C
10 to 100 nM
C=CC(=O)Nc1cc(Nc2nccc(-n3cnc4ccccc43)n2)c(OC)cc1N(C)CCN(C)C
10 to 100 nM
C=CC(=O)Nc1cc(Nc2nccc(Nc3cc(OC)c(Cl)cc3Cl)n2)c(OC)cc1N(C)CCN(C)C
100 to 1000 nM
C=CC(=O)Nc1cc(Nc2nccc(-n3ccc4ccc(Br)cc43)n2)c(OC)cc1N(C)CCN(C)C
10 to 100 nM
C=CC(=O)Nc1cc(Nc2ncnc(Nc3cccc(C(F)(F)F)c3)n2)c(OC)cc1N(C)CCN(C)C
10 to 100 nM
C=CC(=O)Nc1cc(Nc2ncnc(Nc3cccc(Br)c3)n2)c(OC)cc1N1CCC(N2CCCCC2)CC1
< 10 nM

Data request, read-out GI50, for C#Cc1cccc(Nc2cc(Nc3cc(NC(=O)C=C)c(N(C)CCN(C)C)cc3OC)ncn2)c1
10 to 100 nM

----------
For each of the compounds below, state its GI50.
Test system: AU565 (Her2 amp)
Procedure Details: Growth inhibition GI50 in vitro (CCK8/MTT, 72 h)
Type: cell-based, human
Condition Set: Homo sapiens, AU565; HER2 positive cell line; range of GI50; read-out: GI50 AU-565

C=CC(=O)Nc1cc(Nc2cc(Nc3cc(OC)c(Cl)cc3Cl)ncn2)c(OC)cc1N(C)CCN(C)C [Compound 136]
10 to 100 nM

Required: GI50, one value per compound below.
1. C=CC(=O)Nc1cc(Nc2nccc(-n3cnc4ccccc43)n2)c(OC)cc1N(C)CCN(C)C [Compound 106]
2. C=CC(=O)Nc1cc(Nc2nccc(-n3ccc4ccc(Cl)cc43)n2)c(OC)cc1N(C)CCN(C)C [Compound 61]
3. C=CC(=O)Nc1cc(Nc2cc(-c3cn(C)c4ccccc34)ncn2)c(OC)cc1N1CCN(CCN2CCCC2)CC1 [Compound 165]

["10 to 100 nM", "100 to 1000 nM", "100 to 1000 nM"]

----------
Test system: N87 (HER2 Amp)
Procedure Details: Growth inhibition GI50 in vitro (CCK8/MTT, 72 h)
Type: cell-based, human
Condition Set: Homo sapiens; HER2 positive cell line; range of GI50; read-out: GI50 N87
Measure: GI50

The cases that follow already have their GI50 on record.
C=CC(=O)Nc1cc(Nc2cc(Nc3cccc(Br)c3)ncn2)c(OC)cc1N(C)CCN(C)C
< 10 nM
C=CC(=O)Nc1cc(Nc2cc(Nc3ccc(F)c(Cl)c3)ncn2)c(OC)cc1N1CCCN(C)CC1
< 10 nM
C=CC(=O)Nc1cc(Nc2nccc(-n3ccc4ccc(Cl)cc43)n2)c(OC)cc1N(C)CCN(C)C
100 to 1000 nM

Shifting focus to the compound that follows.
Data request, read-out GI50, for C=CC(=O)Nc1cc(Nc2nccc(-n3nnc4ccccc43)n2)c(OC)cc1N(C)CCN(C)C
10 to 100 nM

----------
Test system: AU565 (Her2 amp)
Procedure Details: Growth inhibition GI50 in vitro (CCK8/MTT, 72 h)
Assay type: cell-based, human
Condition Set: Homo sapiens, AU565; HER2 positive cell line; range of GI50; read-out: GI50 AU-565
Measure: GI50

The cases that follow already have their GI50 on record.
C=CC(=O)Nc1cc(Nc2nccc(-n3ccc4c(OC)cccc43)n2)c(OC)cc1N(C)CCN(C)C [Compound 99]
0.01 to 0.1 µM
C=CC(=O)Nc1cc(Nc2nccc(-n3ccc4cc(F)c(F)cc43)n2)c(OC)cc1N(C)CCN(C)C [Compound 103]
0.1 to 1 µM
C=CC(=O)Nc1cc(Nc2cc(-c3cn(C(C)C)c4ccc(F)cc34)ncn2)c(OC)cc1N(C)CCN(C)C [Compound 191]
0.01 to 0.1 µM
C=CC(=O)Nc1cc(Nc2nccc(Nc3cccc(F)c3)n2)c(OC)cc1N(C)CCN(C)C [Compound 3]
0.01 to 0.1 µM
C=CC(=O)Nc1cc(Nc2nccc(-n3nnc4ccccc43)n2)c(OC)cc1N(C)CCN(C)C [Compound 107]
0.1 to 1 µM
C=CC(=O)Nc1cc(Nc2ncnc(Nc3cccc(Br)c3)n2)c(OC)cc1N(C)CCN(C)C [Compound 115]
0.01 to 0.1 µM

Required: GI50, one value per molecule below.
1. C=CC(=O)Nc1cc(Nc2nccc(-n3ccc4ccc(C)cc43)n2)c(OC)cc1N(C)CCN(C)C [Compound 59]
2. C=CC(=O)Nc1cc(Nc2cc(-c3cn(CCC)c4ccccc34)ncn2)c(OC)cc1N(C)CCN(C)C [Compound 182]
3. C=CC(=O)Nc1cc(Nc2nccc(-n3ccc4ccc(F)cc43)n2)c(OC)cc1N(C)CCN(C)C [Compound 63]
4. C=CC(=O)Nc1cc(Nc2nccc(-n3cc(C)c4ccccc43)n2)c(OC)cc1N(C)CCN(C)C [Compound 57]
5. C=CC(=O)Nc1cc(Nc2cc(Nc3ccc(F)c(Cl)c3)ncn2)c(OC)cc1N1CCN(C2CCN(C)CC2)CC1 [Compound 147]
6. C=CC(=O)Nc1cc(Nc2cc(-c3cn(C)c4ccccc34)ncn2)c(OC)cc1N1CCC(N2CCN(C)CC2)CC1 [Compound 176]
7. C=CC(=O)Nc1cc(Nc2ncc(Cl)c(Nc3ccc(OCc4ccccn4)c(Cl)c3)n2)c(OC)cc1N(C)CCN(C)C [Compound 19]
8. C=CC(=O)Nc1cc(Nc2cc(-c3cn(C(C)C)c4ccccc34)ncn2)c(OC)cc1N(C)CCN(C)C [Compound 183]

0.1 to 1 µM
0.01 to 0.1 µM
0.1 to 1 µM
0.1 to 1 µM
< 0.01 µM
0.1 to 1 µM
0.01 to 0.1 µM
0.01 to 0.1 µM

Data request, read-out GI50, for C=CC(=O)Nc1cc(Nc2nccc(Nc3ccc(OCc4ccccn4)c(Cl)c3)n2)c(OC)cc1N(C)CCN(C)C [Compound 18]
0.01 to 0.1 µM

----------
Tested on: H2170 (Her2 amp)
Values of GI50 strictly less than 7 nM map to t, and values of at least 7 nM map to f.

C=CC(=O)Nc1cc(Nc2nccc(Nc3ccc(OCc4ccccn4)c(Cl)c3)n2)c(OC)cc1N(C)CCN(C)C [Compound 18]
f

Consider the compound C=CC(=O)Nc1cc(Nc2cc(-c3cn(C(C)C)c4ccccc34)ncn2)c(OC)cc1N(C)CCN(C)C [Compound 183] . Is its GI50 strictly less than 7 nM?
f

Consider the compound C=CC(=O)Nc1cc(Nc2ncc(Cl)c(Nc3ccc(OCc4ccccn4)c(Cl)c3)n2)c(OC)cc1N(C)CCN(C)C [Compound 19] . Is its GI50 strictly less than 7 nM?
f

Consider the compound C=CC(=O)Nc1cc(Nc2ncnc(Nc3cccc(F)c3)n2)c(OC)cc1N(C)CCN(C)C [Compound 114] . Is its GI50 strictly less than 7 nM?
t

Consider the compound C=CC(=O)Nc1cc(Nc2cc(Nc3ccc(F)c(Cl)c3)ncn2)c(OC)cc1N(C)CCN(C)C [Compound 140] . Is its GI50 strictly less than 7 nM?
t

Consider the compound C=CC(=O)Nc1cc(Nc2cc(Nc3ccc(F)c(Cl)c3)ncn2)c(OC)cc1N1CCN(C2CCN(C)CC2)CC1 [Compound 147] . Is its GI50 strictly less than 7 nM?
t
